molecular target: His-LAMA4 as used in Example 6 (species not stated) (Homo sapiens (Human)) (UniProt Q16363); test: ForteBio BLI, LAMA-His on anti-His sensor, antibody 33.3 nM
endpoint-label: koff (s⁻¹)
Only the number, expressed in s⁻¹, is required.

koff reading for humanized 19C12 antibody H3L6 (antibody, V domains shown) VH: EVQLQQSGAELVKPGASVKVSCKASGYAFSTYWMNWVRQAPGQGLEWIGQIYPGDGDTNYNGKFKGRVTITADKSTSTAYMELSSLRSEDTAVYFCARSDGYYDYWGQGTTVTVSS VL: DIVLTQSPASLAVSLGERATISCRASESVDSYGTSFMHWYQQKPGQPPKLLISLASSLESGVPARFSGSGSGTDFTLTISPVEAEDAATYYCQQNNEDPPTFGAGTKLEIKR : 0.000553

koff reading for humanized 19C12 antibody H2L4 (antibody, V domains shown) VH: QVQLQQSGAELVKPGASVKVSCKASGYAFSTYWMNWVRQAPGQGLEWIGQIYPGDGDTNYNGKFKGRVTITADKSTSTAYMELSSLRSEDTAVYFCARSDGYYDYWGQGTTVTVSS VL: NIVLTQSPASLAVSLGERATISCRASESVDSYGTSFMHWYQQKPGQPPKLLISLASSLESGVPARFSGSGSGTDFTLTISPVEAEDAATYYCQQNNEDPPTFGAGTKLEIKR : 0.00062

koff reading for chimeric 19C12 antibody (antibody, V domains shown) VH: QVQLQQSGAELVKPGASVKISCKASGYAFSTYWMNWVKQRPGEGLEWIGQIYPGDGDTNYNGKFKGKATLTADKSSSTAYMQLSSLTSEDSAVYFCARSDGYYDYWGQGTTLTVSS VL: NIVLTQSPASLAVSLGQRATISCRASESVDSYGTSFMHWYQQKPGQPPKLLICLASSLESGVPARFSGSGSRTDFTLTIDPVEADDAATYYCQQNNEDPPTFGAGTKLELKR : 0.000487
